molecular target: Dnmt3a-CD S124C (Mus musculus, UniProt O88508 608-908, S710C); experiment: fluorescence polarization; 100 uM AdoHcy; Buffer A: 20 mM HEPES pH 7.5, 100 mM KCl, 1 mM EDTA, 1 mM DTT, 100 uM AdoHcy, 25 C; DNA 100 nM (Methods) or 10 nM (Figure 6 legend); Hill fit; settings: protein: recombinant; tags: C-terminal His6; chain copies: 2; label: 5'-FAM on strand 1 via aminohexyl linker; blunt
Sequence (O88508 608-908 S710C): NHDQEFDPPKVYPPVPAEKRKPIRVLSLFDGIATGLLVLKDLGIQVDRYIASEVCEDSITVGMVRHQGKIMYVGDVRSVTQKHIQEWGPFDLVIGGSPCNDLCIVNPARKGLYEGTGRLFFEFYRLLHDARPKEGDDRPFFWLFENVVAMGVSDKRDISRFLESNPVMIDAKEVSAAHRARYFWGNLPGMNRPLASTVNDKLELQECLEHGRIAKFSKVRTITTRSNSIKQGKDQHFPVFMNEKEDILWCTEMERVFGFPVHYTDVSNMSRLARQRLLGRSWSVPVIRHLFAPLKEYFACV
Endpoint label: pKd
Expect pKd as a plain number equal to -log10 of the molar concentration.

Task: Return reported pKd; argument: fCG/CG (dsDNA) DNA 1: CTGAATACTACTTGCGCTCTCTAACCTGAT DNA 2: ATCAGGTTAGAGAGCGCAAGTAGTATTCAG
Output: 6.90
